Origin of the recorded values: paper PMC1904291

# Tgt: T1, I-CreI AM (UniProt P05725 1-163, S138A;K139M)
# T1 sequence: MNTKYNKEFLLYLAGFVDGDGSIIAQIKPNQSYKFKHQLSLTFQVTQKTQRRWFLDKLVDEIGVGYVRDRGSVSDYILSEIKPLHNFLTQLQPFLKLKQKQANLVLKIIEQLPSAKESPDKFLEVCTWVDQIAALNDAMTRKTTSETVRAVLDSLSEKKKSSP
# Protocol: EMSA
Quantity kind: Kd (nM)
Number in nM, nothing else.

Measured Kd of 6-FAM I-CreI target duplex (dsDNA) DNA 1: GCAAAACGTCGTGAGACAGTTTGC DNA 2: GCAAACTGTCTCACGACGTTTTGC : 1240
